molecular target: gEgI WT: HSV2 gEgI heterodimer comprising gE and gI wildtype ectodomains (HSV2, UniProt P89475 21-416; P06764 21-256); experiment: Biacore SPR, gEgI HEK BMP1063 at 10 µg/ml for 180 s over the mAb
outcome_measure: RU Ag/250 RU mAbs (RU Ag/250 RU mAbs)
The answer is to be given in RU Ag/250 RU mAbs; state only the numeric part.

Task item: Reported RU Ag/250 RU mAbs for mAb clone 15 (antibody, V domains shown) VH: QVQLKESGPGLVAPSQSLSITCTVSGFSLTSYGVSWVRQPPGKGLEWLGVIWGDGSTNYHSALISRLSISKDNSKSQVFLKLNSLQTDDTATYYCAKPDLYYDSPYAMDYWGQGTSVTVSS VL: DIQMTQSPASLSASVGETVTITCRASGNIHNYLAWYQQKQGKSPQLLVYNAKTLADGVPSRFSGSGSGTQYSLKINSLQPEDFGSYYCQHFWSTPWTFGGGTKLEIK : what is it?
Reply: 31.5
